- experiment-summary: NCI Yeast Anticancer Drug Screen. Data for the bub3 strain (AID 167)
- assay-context: S. cerevisiae bub3 mutant strain, at 50.0 µM
Compounds without any hit were thinned out: in the full panel of roughly 79,000, 15% have a hit. The source made the active and inactive calls. No stated cut-off is given here; in the data, active means growth inhibition above about 70%; inactive means the rest.
Outcomes: 1.0 (active), 0.0 (inactive)

# compound, class
rows = [
    ("COc1cc([C@H]2c3c(cc(OC)c(OC)c3OC)CC3COC(=O)[C@@H]32)cc2c1OCO2 (some centres undefined)", 1.0),
    ("O=C(C(/C=N\\C(=S)Nc1ccccc1Cl)=C(/O)c1ccccc1)c1ccccc1", 1.0),
    ("CCOC1=Cc2c(oc3c(C(C)(C)C)cc(OCC)cc23)OC(C(C)(C)C)=C1", 1.0),
    ("CS(=O)(=O)OCCN(CCOS(C)(=O)=O)c1ccc(C=Nc2cccc(Br)c2)c(Cl)c1", 0.0),
    ("CCCCCCCCCCCCCCCC[N+](C)(C)C(C)c1ccccc1 (centres undefined)", 1.0),
    ("O=C1C=CC(=Nc2ccc(O)c3ncccc23)c2cccnc21", 1.0),
    ("C=CCNc1nc2c(s1)C(=O)c1ccccc1C2=O", 1.0),
    ("Clc1nnc(Cl)s1", 0.0),
    ("COc1ccc(/C=C/c2ccnc3ccccc23)cc1OC", 1.0),
    ("COc1ccccc1C1c2cc3c(cc2OC(N2CCOCC2)C1C)OCO3 (centres undefined)", 0.0),
    ("O=C1C=C(Cl)C(=O)C(Cl)=C1Cl", 1.0),
    ("Cc1ccc(C(C)(C)C)c(O)c1O", 1.0),
    ("COc1ccc(Br)c2c1CC(C(=O)O)CC2 (centres undefined)", 0.0),
    ("Cn1c(CCC2(C)Cc3ccccc3C(=O)O2)cc2ccccc2c1=O (centres undefined)", 1.0),
    ("C=CCC1=C(C)C(OC(=O)/C=C/c2ccccc2Cl)CC1=O (centres undefined)", 1.0),
    ("CCOC(=O)/C(=C\\c1ccc([N+](=O)[O-])cc1)C(C)=O", 1.0),
    ("CC1(C)C[C@H]2C=C(C=O)[C@]34C[C@]3(C(=O)OC4O)[C@H]2C1 (some centres undefined)", 1.0),
    ("C=C1CC2(CCOc3ccccc32)OC1=O (centres undefined)", 1.0),
    ("CC(NNC(=S)N1CCCC1)c1cc2ccccc2cn1 (centres undefined)", 1.0),
    ("CCCCCCCCCCCCOCC[N+](CCO)(CCO)Cc1ccccc1", 1.0),
    ("Brc1ccc(N2COc3ccc4ccccc4c3C2)cc1", 1.0),
    ("CC1=NOC(=O)C1N=Nc1ccc(Br)cc1C (centres undefined)", 1.0),
    ("CC(C)=CCC/C(C)=C/CC/C(C)=C/CSc1ccccc1C(=O)O", 0.0),
    ("CC(=O)N(C1=CC(=O)c2ccccc2C1=O)c1ccc(C)cc1", 1.0),
]
